System: Fibroblast
Test summary: Incucyte cell viability with human fibroblast; also: unitless GR value; below 1 slowed growth and below 0 cell loss
Format: toxicity, cell-based
Experimental setup: 6 h, 10 µM, compound concentration 10 uM, replicate number 1
Threshold check on Growth Rate: at or above 0.01 gives Condition met, strictly below gives Condition not met.

Before answering, review these 5 worked examples.
CCC(=O)N[C@H]1CC[C@@H](C(=O)N(C)c2ccc(-c3nc4ccccc4o3)cc2)C1 :: Condition met
CC(F)(F)CN1C(=O)c2[nH]nc(-c3cccc4[nH]c(=O)oc34)c2C1c1ccc(Oc2cc(C(F)(F)F)cc(C(F)(F)F)c2)cc1 (centres undefined) :: Condition met
Cc1ccc2c(N)c(C(=O)NC3CCc4cc(N5CC6CCC(C5)N6)ccc4C3)sc2n1.O=CO (centres undefined) :: Condition met
Cc1nsc(Nc2cnc(C(F)(F)F)cn2)c1C(=O)Nc1ccc(O[C@H]2CCCN(CC(F)(F)F)C2)nc1 :: Condition not met
COc1cc(-c2cc(-c3cccc(O)c3)cnc2N)cc(OC)c1OC :: Condition not met

Is reported Growth Rate greater than or equal to 0.01 here: "COCCNc1nc2ccc(C#CC3(O)CCCCC3)cc2n1-c1ccnc(N)n1" Condition not met

Same lookup for "Cl.Clc1ccc(OC[C@H]2CCN2)cn1" , please. Condition not met

Same lookup for CCOC(=O)N1CCC(CN(Cc2ccc(Cl)cc2)Cc2ccc([N+](=O)[O-])s2)C1 (centres undefined) , please. Condition met

====

Test system: U2OS
Test summary: Incucyte cell viability with U2OS; also: unitless GR value; below 1 slowed growth and below 0 cell loss
Type: toxicity, cell-based
Experimental setup: human, 24 h, 10 µM, compound concentration 10 uM, replicate number 1
Value type: Growth Rate

Example cases with answers are listed next.
N#C/C(=C\c1ccc(O)c(O)c1)C(=O)OCCc1cccs1 :: 0.8
CNC(=O)c1ccc2c(c1)NC(=O)/C2=C(\Nc1ccc(CN2CCCCC2)cc1)c1ccccc1.Cl.O :: 0.89
CC1(C)CCC(CN2CCN(c3ccc(C(=O)NS(=O)(=O)c4ccc(NCC5CCOCC5)c([N+](=O)[O-])c4)c(Oc4cnc5[nH]ccc5c4)c3)CC2)=C(c2ccc(Cl)cc2)C1 :: 0.81
O=C1NC(=Nc2c(Cl)cccc2Cl)S/C1=C\c1ccc2nccnc2c1 :: 0.8

Continue with the compound presented below.
What does the record list as Growth Rate for "Cc1ccc(C(=O)Nc2cc(N3CCN(C)CC3)cc(C(F)(F)F)c2)cc1-n1cc(-c2cnn(C)c2C)nn1.Cl" ? 0.82

====

Test system: Fibroblast
Test summary: Incucyte cell viability with human fibroblast; also: unitless GR value; below 1 slowed growth and below 0 cell loss
Assay type: toxicity, cell-based
Experimental setup: 6 h, 10 µM, compound concentration 10 uM, replicate number 2
Threshold check on Growth Rate: at or above -0.6 gives Yes, strictly below gives No.

Cc1ccc(C)c(OCCCC(C)(C)C(=O)O[C@@H]2O[C@H](C(=O)O)[C@@H](O)[C@H](O)[C@H]2O)c1 :: No

Is reported Growth Rate greater than or equal to -0.6 here: "O=C(CCSCc1ccco1)NNC(=O)N1Cc2ccccc2Oc2ccc(Cl)cc21" Yes

Same lookup for "CCc1ccc(-c2ncn(CC3(F)CCN(C)CC3)c2-c2ccnc3[nH]ccc23)nc1" , please. Yes

Same lookup for "CC(C)(c1ccc(O)cc1)c1ccc(O)cc1" , please. Yes

====

Test system: U2OS
Test summary: Incucyte cell viability with U2OS; also: unitless GR value; below 1 slowed growth and below 0 cell loss
Type: toxicity, cell-based
Experimental setup: human, 24 h, 10 µM, compound concentration 10 uM, replicate number 2
Value type: Growth Rate
Respond numerically, and do not add a unit to the figure.

Example cases with answers are listed next.
CN(C(=O)c1cnn2cccnc12)c1cc2c(cc1N1CCOCC1)C(=O)N(C[C@@H](F)C(C)(C)O)C2 :: 0.85
COC1(C#Cc2ccc(Cl)c(-c3ncc4c(n3)-c3sc(NC(C)=O)nc3CC4)c2)CCN(C)CC1 :: 0.62
COc1ccc(F)c(F)c1C(=O)c1cnc(NC2CCN(S(C)(=O)=O)CC2)nc1N :: -0.11

What does the record list as Growth Rate for "N#Cc1ccc(C#CC[C@@H](C#N)NC(=O)[C@H]2CCCCN2)cc1F.O=C(O)C(F)(F)F" ? 0.73

Same lookup for "CC(C)(C)S(=O)(=O)c1ccc2nccc(Nc3n[nH]c4ccc(F)cc34)c2c1" , please. -0.07

Same lookup for "O=C1CN(c2ccccc2F)C(NCCN2CCOCC2)=C1c1nc2cc(Br)ccc2c(=O)[nH]1" , please. 0.96

Same lookup for "O=C(O)CCCCN(CCc1cc(F)ccc1OCc1ccc(-c2ccc(C(F)(F)F)cc2)cc1)Cc1ccc(C(=O)O)cc1" , please. 0.91

Same lookup for CCCCC[C@@](C)(O)/C=C/[C@H]1C(=O)CC(O)C1C/C=C\CCCC(=O)O (stereo not given in full) , please. 1
